Overview of recorded pIC50 for various molecules
Target: human liver glycogen phosphorylase a (HLGPa) (Homo sapiens, UniProt P06737)
Construct: creating a full-length cDNA fused at the 5′ end to codons for methionine-glycine-alanine-histidine; 6xHis tag (leader Met-Gly-Ala-His6-Gly-Gly) (N); made in house; host or cells: E. coli (bacterial expression plasmid pTXK1007LTev)
Sequence (P06737 2-847 limits assumed): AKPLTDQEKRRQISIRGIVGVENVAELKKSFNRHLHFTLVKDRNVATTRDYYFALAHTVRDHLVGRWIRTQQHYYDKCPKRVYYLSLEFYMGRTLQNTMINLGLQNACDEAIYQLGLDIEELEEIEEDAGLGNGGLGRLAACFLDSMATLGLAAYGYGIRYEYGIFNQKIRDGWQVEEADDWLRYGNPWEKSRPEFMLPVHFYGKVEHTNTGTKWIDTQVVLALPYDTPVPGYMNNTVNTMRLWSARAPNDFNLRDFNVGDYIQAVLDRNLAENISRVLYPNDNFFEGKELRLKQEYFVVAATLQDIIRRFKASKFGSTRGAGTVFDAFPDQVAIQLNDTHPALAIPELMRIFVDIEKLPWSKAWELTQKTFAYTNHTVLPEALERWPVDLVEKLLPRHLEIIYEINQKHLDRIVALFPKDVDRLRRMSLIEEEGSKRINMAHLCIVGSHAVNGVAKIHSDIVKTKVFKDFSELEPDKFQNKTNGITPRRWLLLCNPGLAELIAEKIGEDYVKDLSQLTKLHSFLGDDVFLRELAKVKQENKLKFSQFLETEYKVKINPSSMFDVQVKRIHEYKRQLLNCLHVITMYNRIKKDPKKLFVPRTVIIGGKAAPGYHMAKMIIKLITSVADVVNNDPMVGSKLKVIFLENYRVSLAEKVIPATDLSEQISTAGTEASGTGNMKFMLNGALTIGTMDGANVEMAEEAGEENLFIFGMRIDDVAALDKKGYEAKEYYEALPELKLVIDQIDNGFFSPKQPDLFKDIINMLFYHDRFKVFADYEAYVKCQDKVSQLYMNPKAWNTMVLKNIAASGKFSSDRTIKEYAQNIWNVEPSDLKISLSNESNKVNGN
Experiment: Human liver glycogen phosphorylase a enzymatic activity assay (coupled, fluorescent resorufin readout, with and without 10 mM glucose)
Type: biochemical
Details: human liver glycogen phosphorylase a; table does not say whether with or without 10 mM glucose
# log scale: pIC50 equals minus log10 of the concentration in mol/L

[
  {
    "molecule": "Cc1cc(C)c(NC(=O)Nc2cc(-c3cccc(F)c3)ccc2C(=O)N[C@H](C(=O)O)C2CCCCC2)c(C)c1 [Example 234]",
    "numeric-result": 7.62
  }
]

q: pIC50 for O=C(Nc1sc(-c2ccccc2)cc1C(=O)O)Nc1c(Cl)cccc1Cl [Example 382] ?
a: 5.93

q: Quick check: pIC50 of O=C(Nc1c(Cl)cccc1Cl)Nc1c(C(=O)N[C@H](C(=O)O)C2CCCCC2)oc2cc(Br)ccc12 [Example 327] ?
a: 5.01

q: Endpoint output: pIC50 of Cc1cc(C)c(NC(=O)Nc2cc3ccccc3cc2C(=O)NCC2CCCCC2)c(C)c1 [Example 330] . Value?
a: 4.84

q: Would you mind telling me what pIC50 value was observed for O=C(Nc1sc(-c2ccccc2)cc1C(=O)N[C@H](C(=O)O)C1CCCCC1)Nc1c(Cl)cccc1Cl [Example 384] ?
a: 6.64

q: Tell me the measured pIC50 of Cc1cc(C)c(NC(=O)Nc2cc(F)ccc2C(=O)N[C@H](C(=O)O)[C@@H](C)OC(C)(C)C)c(C)c1 [Example 226] , please.
a: 6.28
